Here, each record is paired with measured pIC50 data.
- Tested on: RS4; 11 with G101V mutation
- Measurement Protocol: In vitro anti-proliferation assay (ATPlite luminescence) in BCL-2-dependent ALL cell line RS4;11 with G101V mutation
- Type: cell-based
- Assay Conditions: cellular anti-proliferative IC50, about 72 hours, medium with 10% FBS, ATPlite; read-out: RS411-G101V IC50
Please keep in mind that pIC50 is minus log10 of the molar concentration; only the number is needed.

Examples with their reported pIC50 follow.
[
  {
    "Molecule": "COc1cc(CN2CCN(C3CC4(CCN(c5ccc(C(=O)NS(=O)(=O)c6ccc(NCC7CCC(C)(O)CC7)c([N+](=O)[O-])c6)c(N6c7cc8cc[nH]c8nc7O[C@H]7COCC[C@@H]76)c5)CC4)C3)[C@@H](c3ccccc3OC(C)C)C2)cnc1N1CCOC[C@@H]1C (stereo partly shown) [Example 126]",
    "pIC50": 7.93
  },
  {
    "Molecule": "CC(C)Oc1ccccc1[C@H]1CN(C2CCC(C)(O)CC2)CCN1C1CC2(CCN(c3ccc(C(=O)NS(=O)(=O)c4ccc(NCC5CCC(C)(O)CC5)c([N+](=O)[O-])c4)c(N4c5cc6cc[nH]c6nc5O[C@H]5COCC[C@@H]54)c3)CC2)C1 (stereo partly shown) [Example 109]",
    "pIC50": 7.76
  }
]

Prompt: Notebook: pull reported pIC50 for RS4; 11 with G101V mutation, entry CC(C)Oc1ccccc1[C@H]1CN(Cc2ccnc3c2OCC(C)(C)O3)CCN1C1CC2(CCN(c3ccc(C(=O)NS(=O)(=O)c4ccc(NCC5CCC(C)(O)CC5)c([N+](=O)[O-])c4)c(N4c5cc6cc[nH]c6nc5O[C@H]5COCC[C@@H]54)c3)CC2)C1 (stereo partly shown) [Example 127]
Response: 8.09

Prompt: Notebook: pull reported pIC50 for RS4; 11 with G101V mutation, entry COc1cc(CN2CCN(C3CC4(CCN(c5ccc(C(=O)NS(=O)(=O)c6ccc(NC[C@H]7CC[C@](C)(O)CC7)c([N+](=O)[O-])c6)c(N6c7cc8cc[nH]c8nc7O[C@H]7COCC[C@@H]76)c5)CC4)C3)[C@H](c3ccccc3C)C2)cnc1N1CCOC[C@@H]1C [Example 138]
Response: 8.77

* * *

Here, each record is paired with measured IC50 data.
- Test system: RS4; 11 with G101V mutation
- Measurement Protocol: In vitro anti-proliferation assay (ATPlite luminescence) in BCL-2-dependent ALL cell line RS4;11 with G101V mutation
- Type: cell-based
- Assay Conditions: cellular anti-proliferative IC50, about 72 hours, medium with 10% FBS, ATPlite; read-out: RS411-G101V IC50
Answer in nM, number only, no unit symbol.

[
  {
    "Molecule": "CC(C)Oc1ccccc1[C@H]1CN(Cc2ccc(F)c(F)c2)CCN1C1CC2(CCN(c3ccc(C(=O)NS(=O)(=O)c4ccc(NCC5CCC(C)(O)CC5)c([N+](=O)[O-])c4)c(N4c5cc6cc[nH]c6nc5O[C@H]5COCC[C@@H]54)c3)CC2)C1 (stereo partly shown) [Example 115]",
    "IC50 [nM]": 27.3
  },
  {
    "Molecule": "CC(C)Oc1ccccc1[C@H]1CN(CC2CCOCC2)CCN1C1CC2(CCN(c3ccc(C(=O)NS(=O)(=O)c4ccc(NCC5CCC(C)(O)CC5)c([N+](=O)[O-])c4)c(N4c5cc6cc[nH]c6nc5O[C@H]5COCC[C@@H]54)c3)CC2)C1 (stereo partly shown) [Example 159]",
    "IC50 [nM]": 7.5
  },
  {
    "Molecule": "CC(C)Oc1ccccc1[C@@H]1CN(Cc2ccc(F)c(F)c2)CCN1C1CC2(CCN(c3ccc(C(=O)NS(=O)(=O)c4ccc(NCC5CCOCC5)c([N+](=O)[O-])c4)c(N4c5cc6cc[nH]c6nc5O[C@H]5COCC[C@@H]54)c3)CC2)C1 [Example 186]",
    "IC50 [nM]": 10.6
  }
]

Then this molecule:
Prompt: What measured IC50 goes with COc1cc(CN2CCN(C3CC4(CCN(c5ccc(C(=O)NS(=O)(=O)c6cc7c(c([N+](=O)[O-])c6)N[C@H](C6CCOCC6)CO7)c(N6c7cc8cc[nH]c8nc7O[C@H]7COCC[C@@H]76)c5)CC4)C3)[C@H](c3ccccc3C(C)C)C2)cnc1OC [Example 173] ?
Response: 1
